- measured.target: insulin receptor (IR-B) (Homo sapiens)
- Construct: expressed in transfected cells
- test.method.notes: In vitro activity at insulin B receptor (IR-B)
- Type: cell-based
- condition.details: Table 4; read-out: Normalized IR-B EC50 (nM) MEAN
Exercise: for every item that follows, state its recorded EC50.
Answers are plain numbers, in nM.

Here are 2 substances. What values of EC50 were reported for them?
1. CIU-055: HXEGTFTSDVSSYLEEQAAREFIAWLVRGGPSSGAPPPSK(20K PEG) (SEQ ID NO: 1974); C(S-S)—CH2CH2CH2-B^1 DesDi
2. CIU-004: XEGTFTSDVSSYLEEQAAKEFIAWLVKGGPSSGAPPPS (SEQ ID NO: 1945); C(S-S)—CH2CH2CH2-B^1 Insulin (conjugate chemistry not built)

Reply:
1. 1140
2. 0.59

====

- test.method.notes: physchem
- condition.details: buffer
assay.readout: half-life

Query: Quick one: half-life of CNC(C)(C)C(=O)N1CCC[C@H]1C(=O)N[C@@H](Cc1c[nH]cn1)C(=O)N[C@@H](CO)C(=O)N[C@@H](CCCNC(=N)N)C(=O)NCC(=O)N[C@H](C(=O)N[C@@H](Cc1ccccc1)C(N)=O)[C@@H](C)O [Table 3 no. 19: N—Me-Aib, P, H-SRGTF-NH2] ?
Reply: > 20.8 days

====

- test.method.notes: physchem
- condition.details: buffer

molecule.smiles	t1/2
CC(C)=C(N)C(=O)N1CCC[C@H]1C(=O)N[C@@H](Cc1c[nH]cn1)C(=O)N[C@@H](CO)C(=O)N[C@@H](CCCNC(=N)N)C(=O)NCC(=O)N[C@H](C(=O)N[C@@H](Cc1ccccc1)C(N)=O)[C@@H](C)O	No cleavage
C[C@@H](O)[C@H](NC(=O)CNC(=O)[C@H](CCCNC(=N)N)NC(=O)[C@H](CO)NC(=O)[C@H](Cc1c[nH]cn1)NC(=O)[C@H]1CCCN1C(=O)[C@@H]1CCCN1)C(=O)N[C@@H](Cc1ccccc1)C(N)=O	No cleavage
